test system: Erythromycin-resistant Legionella spp. other than L. pneumophila; assay type: cell-based
measured-endpoint: Mean PAE (h)
Give the quantity in h, number only.

Field Mean PAE (entry CO/N=C1\CN(c2nc3c(cc2F)c(=O)c(C(=O)O)cn3C2CC2)CC1CN (racemic) [Gemifloxacin] ) reads 3.34

Field Mean PAE (entry O=C(O)c1cn(C2CC2)c2cc(N3CCNCC3)c(F)cc2c1=O [Ciprofloxacin] ) reads 2.13

Field Mean PAE (entry N[C@@H]1[C@H]2CN(c3nc4c(cc3F)c(=O)c(C(=O)O)cn4-c3ccc(F)cc3F)C[C@@H]12 [Trovafloxacin] ) reads 2.25

Field Mean PAE (entry CO[C@H]1/C=C/O[C@@]2(C)Oc3c(C)c(O)c4c(O)c(c(/C=N/N5CCN(C)CC5)c(O)c4c3C2=O)NC(=O)/C(C)=C\C=C\[C@H](C)[C@H](O)[C@@H](C)[C@@H](O)[C@@H](C)[C@H](OC(C)=O)[C@@H]1C [Rifampicin] ) reads 5.6

###

test system: Erythromycin-resistant Legionella spp. other than L. pneumophila; format: cell-based
Give measured Mean PAE for each item. Keep answers brief.
Give the quantity in h, number only.

Field Mean PAE (entry "CC[C@H]1OC(=O)[C@H](C)[C@@H](O[C@H]2C[C@@](C)(OC)[C@@H](O)[C@H](C)O2)[C@H](C)[C@@H](O[C@@H]2O[C@H](C)C[C@H](N(C)C)[C@H]2O)[C@](C)(OC)C[C@@H](C)C(=O)[C@H](C)[C@@H](O)[C@]1(C)O" ) reads 1.60

Field Mean PAE (entry Cc1c(F)c(N2CCNC(C)C2)cc2c1c(=O)c(C(=O)O)cn2C1CC1 (stereo not shown) ) reads 3.67

Field Mean PAE (entry CC1COc2c(N3CCN(C)CC3)c(F)cc3c(=O)c(C(=O)O)cn1c23 (stereo not shown) ) reads 4.13

Field Mean PAE (entry "COc1c(N2C[C@@H]3CCCN[C@@H]3C2)c(F)cc2c(=O)c(C(=O)O)cn(C3CC3)c12" ) reads 2.02

Field Mean PAE (entry "C[C@H]1COc2c(N3CCN(C)CC3)c(F)cc3c(=O)c(C(=O)O)cn1c23" ) reads 3.24

Field Mean PAE (entry "CC[C@H]1OC(=O)[C@H](C)[C@@H](O[C@H]2C[C@@](C)(OC)[C@@H](O)[C@H](C)O2)[C@H](C)[C@@H](O[C@@H]2O[C@H](C)C[C@H](N(C)C)[C@H]2O)[C@](C)(O)C[C@@H](C)C(=O)[C@H](C)[C@@H](O)[C@]1(C)O" ) reads 0.44

Field Mean PAE (entry "CC[C@H]1OC(=O)[C@H](C)[C@@H](O[C@H]2C[C@@](C)(OC)[C@@H](O)[C@H](C)O2)[C@H](C)[C@@H](O[C@@H]2O[C@H](C)C[C@H](N(C)C)[C@H]2O)[C@](C)(O)C[C@@H](C)CN(C)[C@H](C)[C@@H](O)[C@]1(C)O" ) reads 2.13
